mean cell size overview
system: Saccharomyces cerevisiae BY4741 SeMeCo community; test: mean cell size (pixel area) (pixels); higher = larger cells; conditions: 10 µM; 24 h; SM minimal medium
Where a name gives a salt, the structure may show the parent alone.
Endpoint name: mean cell size

Molecule | Observed measurement
O=c1n(CCCN2CCN(c3cccc(Cl)c3)CC2)nc2ccccn12 [Trazodone HCl] | 12.6
COC(=O)C1=C(C)NC(C)=C(C(=O)OC)C1c1ccccc1[N+](=O)[O-] [Nifedipine] | 12.5
NC(CO)(CO)CO [Trometamol] | 12.2
CCN(CC)CCOCCOC(=O)C1(c2ccccc2)CCCC1 [Pentoxyverine Citrate] | 12.5
Cc1c(OCC(F)(F)F)ccnc1C[S+]([O-])c1nc2ccccc2[nH]1 (stereo not given) [Lansoprazole] | 12.5

* * *

test system: Saccharomyces cerevisiae BY4741 SeMeCo community; assay: z-score of subpopulation abundance vs DMSO median, subpopulation auxotrophic for L; higher = larger share of this subpopulation than in DMSO controls; conditions: 10 µM; 24 h; SM minimal medium; subpopulation (auxotrophy): L
Structures can show the parent of a compound that is named as a salt.
# if value of z-score of subpopulation abundance reaches -0.5, tag t; if it stays below, tag f

Compound | Assigned class
CC(=O)OCC[N+](C)(C)C [Acetylcholine iodide] | f
CC1CCc2c(N3CCC(O)CC3)c(F)cc3c(=O)c(C(=O)O)cn1c23 (stereo not drawn) | t
O=C(c1ccc(F)cc1)C1CCN(CCn2c(=O)[nH]c3ccccc3c2=O)CC1 | t
CC/C(=C(\c1ccccc1)c1ccc(OCCN(C)C)cc1)c1ccccc1 [Tamoxifen] | t
CN1[C@@H]2CC[C@H]1C[C@@H](OC(c1ccccc1)c1ccccc1)C2 [Benztropine mesylate] | t
CC1=C(C(=O)OCCN(Cc2ccccc2)c2ccccc2)C(c2cccc([N+](=O)[O-])c2)C(P2(=O)OCC(C)(C)CO2)=C(C)N1 (stereo not drawn) | t
CO/N=C(\C(=O)N[C@@H]1C(=O)N2C(C(=O)[O-])=C(C[n+]3cccc4c3CCC4)CS[C@H]12)c1csc(N)n1 [Cefpirome sulfate] | t
CCCCN(CCCC)CC(O)c1cc(Cl)cc2c1-c1ccc(Cl)cc1/C2=C/c1ccc(Cl)cc1 (stereo not drawn) | f

* * *

Reported z-score of subpopulation abundance by item:
system: Saccharomyces cerevisiae BY4741 SeMeCo community; assay: z-score of subpopulation abundance vs DMSO median, subpopulation auxotrophic for HLUM; higher = larger share of this subpopulation than in DMSO controls; conditions: 10 µM; 24 h; SM minimal medium; subpopulation (auxotrophy): HLUM
Where a name gives a salt, the structure may show the parent alone.

Compound | z-score of subpopulation abundance
Cc1cc(NS(=O)(=O)c2ccc(N)cc2)nc(C)n1 | 0.48
CCCCN(CCCC)CC(O)c1cc(Cl)cc2c1-c1ccc(Cl)cc1/C2=C/c1ccc(Cl)cc1 (stereo not drawn) | -0.39
CCCCN1CCCCC1C(=O)Nc1c(C)cccc1C (stereo not drawn) [Bupivacaine HCl] | -0.67
COc1ccc(CN2CCN(C(c3ccc(F)cc3)c3ccc(F)cc3)CC2)c(OC)c1OC [Lomerizine 2HCl] | -0.64
CCCC(=O)OCOC(=O)C1=C(C)NC(C)=C(C(=O)OC)C1c1cccc(Cl)c1Cl (stereo not drawn) [Clevidipine Butyrate] | 0.59
CCC[C@@H]1C[C@@H](C(=O)N[C@@H]([C@H]2O[C@H](SC)[C@H](OP(=O)(O)O)[C@@H](O)[C@H]2O)[C@H](C)Cl)N(C)C1 [Clindamycin Phosphate] | -0.47
C[N+]1(C)[C@@H]2CC[C@H]1C[C@@H](OC(=O)C(O)c1ccccc1)C2 (stereo partly drawn) [Homatropine Methylbromide] | -0.38
Cc1ccc(C(=O)C(C)CN2CCCCC2)cc1 (stereo not drawn) [Tolperisone HCl] | -0.57
